System tested: T1, B-cat-Halo (beta-catenin HaloTag construct transfected into HEK293 cells) (UniProt P35222 1-781)
T1 sequence (looked up): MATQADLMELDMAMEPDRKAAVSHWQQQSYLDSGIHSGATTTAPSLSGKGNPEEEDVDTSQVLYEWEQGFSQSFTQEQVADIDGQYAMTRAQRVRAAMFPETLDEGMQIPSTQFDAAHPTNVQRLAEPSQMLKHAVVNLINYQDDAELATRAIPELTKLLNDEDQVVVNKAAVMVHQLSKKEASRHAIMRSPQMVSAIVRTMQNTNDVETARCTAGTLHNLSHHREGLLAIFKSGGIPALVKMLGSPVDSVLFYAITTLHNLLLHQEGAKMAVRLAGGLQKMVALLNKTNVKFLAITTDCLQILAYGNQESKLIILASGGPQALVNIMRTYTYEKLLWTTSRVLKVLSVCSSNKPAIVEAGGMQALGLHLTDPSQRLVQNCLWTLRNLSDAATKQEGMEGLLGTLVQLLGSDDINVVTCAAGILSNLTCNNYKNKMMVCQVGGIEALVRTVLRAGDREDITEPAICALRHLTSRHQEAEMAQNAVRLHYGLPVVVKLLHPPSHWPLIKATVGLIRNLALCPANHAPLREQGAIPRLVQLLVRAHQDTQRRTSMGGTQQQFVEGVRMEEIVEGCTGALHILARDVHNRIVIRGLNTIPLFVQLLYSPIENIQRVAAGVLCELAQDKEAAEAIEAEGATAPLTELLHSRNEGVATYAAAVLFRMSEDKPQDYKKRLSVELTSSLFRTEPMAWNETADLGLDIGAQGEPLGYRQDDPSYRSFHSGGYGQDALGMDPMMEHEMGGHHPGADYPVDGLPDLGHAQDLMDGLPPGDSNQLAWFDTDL
Method description: cell-based or functional assay
Starred links: 1 amine or outer side, 2 acyl side, 3 side chain; linkers in the order of their positions; H or OH if unused. Positions of bridges follow the written chain, without caps; N, C: chain ends. Non-standard residues stand in square brackets, D forms with d. Primed or numbered codes have the meaning given here. PyrS2″ = (S)-3-amino-1-((pent-4-en-1-yloxy)carbonyl)pyrrolidine-3-carboxylic acid (stapling residue), C=CCCCOC(=O)N1CC[C@@](N[*:1])(C(=O)[*:2])C1; B5(4) = 2,2-bis(4-pentenyl)glycine = 2-amino-2-(pent-4-en-1-yl)hept-6-enoic acid (stitching residue), C=CCCCC(CCCC=C)(N[*:1])C(=O)[*:2]; B5(19) = 2-amino-2-(pent-4-en-1-yl)hept-6-enoic acid (bis(4-pentenyl)glycine), C=CCCCC(CCCC=C)(N[*:1])C(=O)[*:2]; Phe(3-CONH2) = NC(=O)c1cccc(C[C@H](N)C(=O)O)c1; Phe(3-COOH) = N[C@@H](Cc1cccc(C(=O)O)c1)C(=O)O; Bta = N[C@@H](Cc1csc2ccccc12)C(=O)O; Lys(iPr) = CC(C)NCCCC[C@H](N)C(=O)O; αAllylPro = C=CC[C@@]1(C(=O)O)CCCN1; tBuAla = CC(C)(C)C[C@H](N)C(=O)O; 3Thi = N[C@@H](Cc1ccsc1)C(=O)O; Cha = N[C@@H](CC1CCCCC1)C(=O)O; PyrS2(4) = not defined here; hSer = N[C@@H](CCO)C(=O)O
Reported NanoBRET Abs IC50 by item:

Binder	Censor symbol	NanoBRET Abs IC50, µM
Ac-[αAllylPro]D[tBuAla][B5(4)]D[Phe(3-COOH)][Lys(iPr)]AFL[PyrS2(4)][3Thi][Bta]A-NH2 (staple 1-4, 4-11; not fully specified; printed as Ac-PL3-Asp-Npg-B5-Asp-3COOHF-iPrLys-Ala-Phe-Leu-PyrS2-3Thi-BztA-Ala-NH2; reading uncertain) [I-1915]	=	20.2
Ac-[αAllylPro]N[Cha][B5(19)]DQ[Lys(iPr)]AFN[PyrS2″][Phe(3-CONH2)][Bta][hSer]-NH2 (staple 1-4, 4-11) [I-1929]	>	20

Reference source for all entries: patent US20240116985A1
